Ref: patent US11339185B2

target: STING WT: His-TVMV-S-hSTING(155-341)-H232R (Homo sapiens, UniProt Q86WV6, H232R); construct: STING WT: His-TVMV-S-hSTING(155-341)-H232R; experiment: STING HTRF binding assay (time resolved FRET competition), STING WT; conditions: 20 nM His-tagged STING WT cytoplasmic domain, 200 nM fluorescein-labeled cGAMP analog probe, one hour; read-out: HTRF Binding Assays IC50 (μM) WT
Sequence (Q86WV6 with tags, fused parts or gaps H232R): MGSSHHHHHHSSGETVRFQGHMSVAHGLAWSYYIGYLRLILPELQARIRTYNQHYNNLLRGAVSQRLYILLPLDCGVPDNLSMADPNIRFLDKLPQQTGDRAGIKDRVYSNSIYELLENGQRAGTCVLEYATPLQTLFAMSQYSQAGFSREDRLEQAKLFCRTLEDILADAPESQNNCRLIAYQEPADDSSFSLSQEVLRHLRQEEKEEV
Quantity kind: log10(IC50) (log10 of the value in µM)
Kindly note that the scale is log10 and the underlying IC50 is in µM.

Entry NC(=O)c1cc([C@@H]2C[C@@H]3COP(=O)(O)O[C@H]4[C@@H](F)[C@H](n5cnc6c(N)ncnc65)O[C@@H]4COP(=O)(O)OC[C@H]32)ccn1 has what log10(IC50)? 1.49

Further, for Nc1ncnc2c1ncn2[C@@H]1C[C@@H]2COP(=O)(S)O[C@@H]3[C@H](F)[C@@H](COP(=O)(S)OC[C@H]21)O[C@H]3n1cnc2c1ncn1ccnc21 (single isomer, unassigned) [Example 8-4] ? -0.46

Nc1ncnc2c1ncn2[C@@H]1C[C@@H]2COP(=O)(S)O[C@H]3[C@@H](F)[C@H](n4cnc5c4ncn4ccnc54)O[C@@H]3COP(=O)(S)OC[C@H]21 (single isomer, unassigned) [Example 17-3] , same question. 0.72

Now the same for NC(=O)c1cc([C@@H]2C[C@@H]3COP(=O)(S)O[C@H]4[C@@H](F)[C@H](n5cnc6c(N)ncnc65)O[C@@H]4COP(=O)(O)OC[C@H]32)ccn1 (single isomer, unassigned) 0.68

Let us now turn to O=P1(S)OC[C@@H]2[C@@H](COP(=O)(S)O[C@H]3[C@@H](F)[C@H](n4cnc5c4ncn4ccnc54)O[C@@H]3CO1)C[C@H]2n1cnc2c(Cl)ncnc21 (single isomer, unassigned) [Example 18-4] 1.39

What would you report for Nc1ncnc2c1ncn2[C@@H]1O[C@@H]2COP(=O)(S)OC[C@@H]3[C@@H](COP(=O)(S)O[C@H]2[C@H]1F)C[C@H]3n1cnc2c(=O)n3cnnc3[nH]c21 (single isomer, unassigned) [Example 21-2] ? 0.84

Param item: Nc1ncnc2c1ncn2[C@@H]1O[C@@H]2COP(=O)(S)OC[C@@H]3[C@@H](COP(=O)(S)O[C@H]2[C@H]1F)C[C@H]3n1cnc2c(=O)n3nnnc3[nH]c21 (single isomer, unassigned) 0.70

Request: Nc1ncnc2c1ncn2[C@@H]1O[C@@H]2COP(=O)(S)OC[C@@H]3[C@@H](COP(=O)(S)O[C@H]2[C@H]1F)C[C@H]3n1cnc2c(=O)[nH]cnc21 (single isomer, unassigned) [Example 22-1] 0.75

Query Nc1ncnc2c1ncn2[C@@H]1O[C@@H]2COP(=O)(S)OC[C@@H]3[C@@H](COP(=O)(S)O[C@H]2[C@H]1F)C[C@H]3n1cnc2c(O)n3ccnc3nc21 (single isomer, unassigned) [Example 1-2] next -0.05

Try this molecule too: NC(=O)c1cc([C@@H]2C[C@@H]3COP(=O)(S)O[C@H]4[C@H](F)[C@H](n5cnc6c(N)ncnc65)O[C@@H]4COP(=O)(S)OC[C@H]32)ccn1 (single isomer, unassigned) 1.72

Try the molecule Nc1ncnc2c1ncn2[C@@H]1C[C@@H]2COP(=O)(S)O[C@H]3[C@@H](F)[C@H](n4cnc5c4ncn4ccnc54)O[C@@H]3COP(=O)(S)OC[C@H]21 (single isomer, unassigned) [Example 17-2] 1.59

Input Nc1ncnc2c1ncn2[C@@H]1C[C@@H]2COP(=O)(S)O[C@@H]3[C@H](F)[C@@H](COP(=O)(S)OC[C@H]21)O[C@H]3n1cnc2c1ncn1ccnc21 (single isomer, unassigned) [Example 8-1] 1.05

Next record, please: NC(=O)c1cc([C@@H]2O[C@@H]3COP(=O)(S)OC[C@@H]4[C@@H](COP(=O)(S)O[C@@H]2[C@@H]3O)C[C@H]4n2cnc3c(N)ncnc32)ccn1 (single isomer, unassigned) [Example 20-3] -2.00

Item: Nc1ncnc2c1ncn2[C@@H]1O[C@@H]2COP(=O)(S)OC[C@@H]3[C@@H](COP(=O)(S)O[C@H]2[C@H]1F)C[C@H]3n1cnc2c(=O)n3cnnc3[nH]c21 (single isomer, unassigned) [Example 21-1] -0.82
